Tested on: bean beetle (Acanthoscalides obtectus)
assay-text: Pesticidal effect on bean beetle, treated filter paper discs (Example 15, Table I)
Assay type: in vivo
test-parameters: concentration of active ingredient 0.2%; 24 hours; killed and paralysed
measurement-name: mortality % (%)
Please reply with the bare figure in % and do not write the unit itself.

Observe how each entry below is paired with its result.
> print(dat)
                                   compound  value.observed
1  CNC(=O)Oc1cccc2c1OC(C)(C)C2 [Carbofuran, reference compound]             100
2  CNC(=O)Oc1ccccc1C1OCCO1 [Dioxacarb, reference compound]              93
3  CCOC(=O)CCN(CN(C)C(=O)Oc1cccc2c1OC(C)(C)C2)C(C)C              80
4    CN(CN1CCOCC1)C(=O)Oc1cccc2c1OC(C)(C)C2              97
5  COc1ccc(CCNCN(C)C(=O)Oc2cccc3c2OC(C)(C)C3)cc1OC              87

Turning to the following compound.
Q) Dear colleague, I am looking for the recorded mortality % of the following compound: CC(C)NCN(C)C(=O)Oc1cccc2c1OC(C)(C)C2
A) 100

Where do these numbers come from? They come from patent US4788217A.
